B1: 6YSE (parent)
chain: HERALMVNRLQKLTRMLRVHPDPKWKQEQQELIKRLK

Variants of: B1
Assay: folding stability dG (cDNA display proteolysis); higher = more stable
Conditions: PBS, room temperature
Note to self: values exactly at 1 kcal/mol are 1 (yes). So folding stability dG at or above 1 kcal/mol is 1 (yes), below is 0 (no).

Would you please look over these solved cases?
Mutation list	Class
A4I	1 (yes)
T14Y	1 (yes)
Q29C	1 (yes)
L17M	0 (no)
Q27G	0 (no)

Query string: Hello, I need to know if `K34H` has measured folding stability dG not below 1 kcal/mol. Thanks!
Result string: 1 (yes)

Query string: Hello, I need to know if `W25D` has measured folding stability dG not below 1 kcal/mol. Thanks!
Result string: 0 (no)
